This collection of values is drawn from the MegaScale stability set (Tsuboyama et al. 2023).

B1: EEHEE_rd4_0647 (parent)
chain: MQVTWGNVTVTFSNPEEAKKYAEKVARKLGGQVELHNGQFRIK

# Variants of: B1
# Assay notes: folding stability dG (cDNA display proteolysis); higher = more stable
# Measurement setup: PBS, room temperature
Provide the reported folding stability dG of each item.
Please answer in the form of a number followed by its unit of measurement.

For this variant ( V33S ), measured folding stability dG is 1.11 kcal/mol

Record A18C , field folding stability dG: 1.92 kcal/mol

Recorded folding stability dG (variant E34L ): 2.21 kcal/mol

Field folding stability dG (entry V8I ) reads 2.96 kcal/mol

Memo: K28M , reported folding stability dG: 3.09 kcal/mol

Measured folding stability dG of V8K : 2.57 kcal/mol

folding stability dG reported for this variant L35C : 2.78 kcal/mol

Entry A18E , folding stability dG reported as 0.034 kcal/mol

Record N7M . Reported folding stability dG: 2.37 kcal/mol

For record V33Y the listed folding stability dG is 2.07 kcal/mol

Just so you know, measured folding stability dG for E17R came out at 2.62 kcal/mol

Sample S13N ; folding stability dG observed: 2.79 kcal/mol

For E17L the variant record lists folding stability dG as 2.84 kcal/mol

Data point: N37E ; folding stability dG = 2.56 kcal/mol

Summary for this variant, F40D : folding stability dG is 0.455 kcal/mol

Sure, the documented folding stability dG for T11E is 2.34 kcal/mol

The recorded folding stability dG for F40V is 1.46 kcal/mol

In plain terms, T11S has a documented folding stability dG of 2.73 kcal/mol

The variant N7A showed folding stability dG equal to 2.39 kcal/mol

Field folding stability dG (entry E34M ) reads 2.22 kcal/mol

Recorded folding stability dG (variant K24T ): 2.61 kcal/mol

folding stability dG reading for K28Q : 2.79 kcal/mol

// M1K : folding stability dG value = 2.27 kcal/mol

Kindly note the recorded folding stability dG for E23H , which is 2.69 kcal/mol

Per the records, this variant ( V10K ) has folding stability dG equal to 2.66 kcal/mol

// recorded folding stability dG for N14Q : 2.2 kcal/mol

So, E34I ? Its folding stability dG was 2.83 kcal/mol

The recorded folding stability dG for entry V3M equals 1.05 kcal/mol

// S13W : folding stability dG value = 2.34 kcal/mol

Notebook: P15N , folding stability dG read as 2.29 kcal/mol

For this variant ( G30W ), measured folding stability dG is 1.74 kcal/mol

For record V8M the listed folding stability dG is 2.68 kcal/mol

Reported folding stability dG of R27E : 2.61 kcal/mol

The recorded folding stability dG for entry G30Y equals 1.81 kcal/mol

Lab book: folding stability dG of L29W noted as 2.5 kcal/mol

Value of folding stability dG reported for the variant V33F is 1.85 kcal/mol

folding stability dG recorded for this variant, N14S , is 2.86 kcal/mol

Entry under test: K20T . Its folding stability dG was 2.62 kcal/mol

folding stability dG in this record for N37W : 1.32 kcal/mol

Form field folding stability dG, entry T11F : 3 kcal/mol

# folding stability dG of A22C = 1.62 kcal/mol

The reported value for A26N in terms of folding stability dG is 0.851 kcal/mol

Lab note: measured folding stability dG of T4Q was 2.49 kcal/mol

The recorded folding stability dG for entry I42Y equals 0.752 kcal/mol

Item: S13P | folding stability dG: 2.58 kcal/mol

Sample R41K ; folding stability dG observed: 2.53 kcal/mol
